# credit: patent US20020128434A1

Molecular target: Cathepsin H (Homo sapiens, UniProt P09668)
Sequence (P09668 98-335): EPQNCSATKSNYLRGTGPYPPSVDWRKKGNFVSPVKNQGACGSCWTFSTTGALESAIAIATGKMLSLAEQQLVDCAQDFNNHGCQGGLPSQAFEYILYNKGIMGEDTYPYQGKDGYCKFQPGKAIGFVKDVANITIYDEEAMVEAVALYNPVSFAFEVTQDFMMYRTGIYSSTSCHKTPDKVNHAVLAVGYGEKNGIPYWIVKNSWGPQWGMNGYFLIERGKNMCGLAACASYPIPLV
Counter-ions that a name gives are not always drawn.
Documented pIC50 across a set of molecules
The meaning of pIC50 here: minus log10 of the concentration in molar units.

molecule	numeric readout
Cc1cc(OCC(=O)[C@@H](N)CCc2ccccc2)cc(=O)o1	6.93

Next up:
Please report the measured pIC50 for N[C@@H](CCc1ccccc1)C(=O)COC1=CC(=O)OC1 [hydrochloride]
6.60

###

metric name: melting point

molecule	melting point
Cc1cc(OCC(=O)[C@H](CCc2ccccc2)NC(=O)[C@H](CC(C)C)NC(=O)N2CCOCC2)cc(=O)o1	70 to 75 °C
O=C1OCC(OCC(=O)[C@H](CCc2ccccc2)NC(=O)[C@H](Cc2ccccc2)NC(=O)N2CCOCC2)=C1c1ccccc1	114 to 116 °C
CC1CC(OCC(=O)C(CCc2ccccc2)NC(=O)C(Cc2ccccc2)NC(=O)N2CCOCC2)=CC(=O)O1 (centres unmarked)	74 to 78 °C
COc1ccc(C[C@H](NC(=O)N2CCOCC2)C(=O)N[C@@H](CCCCN)C(=O)COc2cc(C)oc(=O)c2)cc1	140 to 142 °C
NCCCC[C@H](NC(=O)[C@H](Cc1ccccc1)NC(=O)N1CCOCC1)C(=O)COC1=C(c2ccccc2)C(=O)OC1	140 to 145 °C
O=C(COc1cc(=O)oc2ccccc12)[C@H](CCc1ccccc1)NC(=O)[C@H](Cc1ccccc1)NC(=O)N1CCOCC1	115 to 119 °C
Cc1cc(OCC(=O)[C@H](CCCCN)NC(=O)[C@H](Cc2ccccc2)NC(=O)N2CCOCC2)cc(=O)o1	151 to 155 °C

Next up:
Please report the measured melting point for COc1ccc(C[C@H](NC(=O)N2CCOCC2)C(=O)N[C@@H](CCCCN)C(=O)COC2=C(c3ccccc3)C(=O)OC2)cc1
140 to 142 °C

###

Documented pIC50 across a set of compounds
Target: Cathepsin B, purified from human liver (Homo sapiens, UniProt P07858)
Construct: Cathepsin B, purified from human liver; purchased Enzyme Systems Products (Dublin, Calif.); host or cells: human liver (tissue-purified)
Test: In vitro evaluation of inhibitors with purified cathepsin B
Assay type: biochemical
Conditions: inhibitors with other heterocycles; read-out: IC5 Cathepsin B Inhibition
The meaning of pIC50 here: minus log10 of the concentration in molar units.

See these solved cases before continuing.
compound	metric name	numeric readout
O=C(COc1nccc2ccccc12)[C@H](CCc1ccccc1)NC(=O)[C@H](Cc1ccccc1)NC(=O)N1CCOCC1	pIC50	6.34
O=C(COc1cc2ccccc2o1)[C@H](CCc1ccccc1)NC(=O)[C@H](Cc1ccccc1)NC(=O)N1CCOCC1	pIC50	6.60

Report pIC50 from Cathepsin B, purified from human liver (Homo sapiens, UniProt P07858) testing of CCOC(=O)c1c(C)noc1OCC(=O)[C@H](CCc1ccccc1)NC(=O)[C@H](Cc1ccccc1)NC(=O)N1CCOCC1
5.66

Report pIC50 from Cathepsin B, purified from human liver (Homo sapiens, UniProt P07858) testing of CCC1OC(=O)C(OCC(=O)C(CCc2ccccc2)NC(=O)C(Cc2ccccc2)NC(=O)N2CCOCC2)=C1C (centres unmarked)
6.64

Report pIC50 from Cathepsin B, purified from human liver (Homo sapiens, UniProt P07858) testing of C[n+]1ccc2ccccc2c1OCC(=O)[C@H](CCc1ccccc1)NC(=O)[C@H](Cc1ccccc1)NC(=O)N1CCOCC1
5.25
